- method: DLS size of dendrimersomes assembled from glycerol-JDs in water at different concentrations
- Format: physicochemical
- assay_context: JD 0.2 mg·mL−1 in water
measurement_kind: PDI
The reply should be a number, written without any unit.

Problem: Suppose we examine the molecule CCCCCCCCCCCCOc1cc(OCCCCCCCCCCCC)cc(C(=O)OCC(C)(COC(=O)c2cc(OCCCCCCCCCCCC)cc(OCCCCCCCCCCCC)c2)C(=O)OC[C@@H](COC(=O)c2cc(OCCOCCOCCOC)c(OCCOCCOCCOC)c(OCCOCCOCCOC)c2)OC(=O)c2cc(OCCOCCOCCOC)c(OCCOCCOCCOC)c(OCCOCCOCCOC)c2)c1 [Compound 2R, (3,5)-12G1-BMPA-GC-(R)-(3,4,5)-3EO-G1] ; what PDI value has been reported?
Solution: 0.242

----------
- method: DLS size of dendrimersomes assembled from glycerol-JDs in water at different concentrations
- Assay type: physicochemical
- assay_context: JD 0.025 mg·mL−1 in water
PDI strictly less than 0.4 = Satisfied. Otherwise Not satisfied.

molecule	category_label
CCCCCCCCCCCCOc1cc(OCCCCCCCCCCCC)cc(C(=O)OCC(C)(COC(=O)c2cc(OCCCCCCCCCCCC)cc(OCCCCCCCCCCCC)c2)C(=O)OC[C@@H](COC(=O)c2cc(OCCOCCOCCOC)c(OCCOCCOCCOC)c(OCCOCCOCCOC)c2)OC(=O)c2cc(OCCOCCOCCOC)c(OCCOCCOCCOC)c(OCCOCCOCCOC)c2)c1 [Compound 2R, (3,5)-12G1-BMPA-GC-(R)-(3,4,5)-3EO-G1]	Not satisfied
CCCCCCCCCCCCOc1cc(OCCCCCCCCCCCC)cc(C(=O)OC[C@H](COC(=O)C(C)(COC(=O)c2cc(OCCOCCOCCOC)c(OCCOCCOCCOC)c(OCCOCCOCCOC)c2)COC(=O)c2cc(OCCOCCOCCOC)c(OCCOCCOCCOC)c(OCCOCCOCCOC)c2)OC(=O)c2cc(OCCCCCCCCCCCC)cc(OCCCCCCCCCCCC)c2)c1 [Compound 1R, (3,5)-12G1-GC-(R)-BMPA-(3,4,5)-3EO-G1]	Not satisfied
CCCCCCCCCCCCOc1cc(OCCCCCCCCCCCC)cc(C(=O)OCC(COC(=O)c2cc(OCCCCCCCCCCCC)cc(OCCCCCCCCCCCC)c2)OC(=O)C(C)(COC(=O)c2cc(OCCOCCOCCOC)c(OCCOCCOCCOC)c(OCCOCCOCCOC)c2)COC(=O)c2cc(OCCOCCOCCOC)c(OCCOCCOCCOC)c(OCCOCCOCCOC)c2)c1	Satisfied
CCCCCCCCCCCCOc1cc(OCCCCCCCCCCCC)cc(C(=O)OC[C@@H](COC(=O)C(C)(COC(=O)c2cc(OCCOCCOCCOC)c(OCCOCCOCCOC)c(OCCOCCOCCOC)c2)COC(=O)c2cc(OCCOCCOCCOC)c(OCCOCCOCCOC)c(OCCOCCOCCOC)c2)OC(=O)c2cc(OCCCCCCCCCCCC)cc(OCCCCCCCCCCCC)c2)c1 [Compound 1S, (3,5)-12G1-GC-(S)-BMPA-(3,4,5)-3EO-G1]	Not satisfied

# next molecule below
Problem: Answer whether the molecule CCCCCCCCCCCCOc1cc(OCCCCCCCCCCCC)cc(C(=O)OCC(C)(COC(=O)c2cc(OCCCCCCCCCCCC)cc(OCCCCCCCCCCCC)c2)C(=O)OC[C@H](COC(=O)c2cc(OCCOCCOCCOC)c(OCCOCCOCCOC)c(OCCOCCOCCOC)c2)OC(=O)c2cc(OCCOCCOCCOC)c(OCCOCCOCCOC)c(OCCOCCOCCOC)c2)c1 [Compound 2S, (3,5)-12G1-BMPA-GC-(S)-(3,4,5)-3EO-G1] has PDI strictly less than 0.4
Solution: Not satisfied
